Tested on: Caco-2
Experiment: cell viability relative to DMSO; higher = less toxic
Details: 72 h; 10000 nM
// cell viability lookup, one value per entry
recorded.metric: cell viability (%)

molecule	uom	assay.value
Cc1cc2c(cc1CC(=O)c1sccc1S(=O)(=O)Nc1onc(C)c1Cl)OCO2	%	108
COCCOc1ccc(N2CCN(CCn3ncc4c3nc(N)n3nc(-c5ccco5)nc43)CC2)cc1	%	93.1
CC(=O)O[C@H]1C[C@@H]2CC[C@@H]3[C@H](CC[C@@]4(C)[C@H]3C[C@H](N3CC[N+](C)(C)CC3)[C@@H]4OC(C)=O)[C@@]2(C)C[C@@H]1N1CC[N+](C)(C)CC1	%	97
CC(C)(Sc1cc(C(C)(C)C)c(O)c(C(C)(C)C)c1)Sc1cc(C(C)(C)C)c(O)c(C(C)(C)C)c1	%	102
NC(=O)C[S+]([O-])C(c1ccccc1)c1ccccc1 (configuration not stated)	%	97
Cc1ncc([N+](=O)[O-])n1CC(O)CN1CCOCC1 (configuration not stated)	%	102
CC(=O)N[C@@H](CC(=O)O)C(=O)N[C@@H](CCC(=O)O)C(=O)O	%	101
O=C(O)/C=C/c1ccc(Cn2ccnc2)cc1	%	94.9
C=CCSCC1Nc2cc(Cl)c(S(N)(=O)=O)cc2S(=O)(=O)N1 (configuration not stated) [althiazide]	%	89.8
CCOC(=O)[C@H](Cc1ccc([N+](=O)[O-])cc1)NC(=O)c1ccccc1	%	90.7
N#Cc1ccc(C(c2ccc(C#N)cc2)n2cncn2)cc1	%	97.3
c1ccc(-c2ccc(CNc3nc(-c4ccccn4)nnc3-c3ccccc3)cc2)cc1	%	13.6
COc1cc2c3cc1Oc1cc(ccc1O)C[C@@H]1c4c(cc(OC)c(O)c4Oc4ccc(cc4)C[C@@H]3N(C)CC2)CC[N+]1(C)C	%	111
CCCOCCn1c(=O)c(N2CCN(CCO)CC2)nc2cnc(-c3ccc(OC)nc3)cc21	%	93.6
OB1OCc2cc(F)ccc21	%	97.3
C[C@@H](c1nc(-c2ccc(C#N)cc2)cs1)[C@](O)(Cn1cncn1)c1ccc(F)cc1F	%	59.3
CCOC(=O)Nc1ccc(NCc2ccc(F)cc2)nc1N	%	96
C[C@H](N)C(=O)N[C@@H](CCC(N)=O)C(=O)O	%	110
COc1cc(O)c2c(c1)C(=O)c1cc(C)cc(O)c1C2=O	%	93.5
Cc1cc(Nc2cc(CN3CCOCC3)c3nc(C)c(Cc4ccc(Cl)cc4F)n3n2)n[nH]1	%	62.8
OCCN1CCN(CC/C=C2/c3ccccc3Sc3ccc(C(F)(F)F)cc32)CC1	%	92.4
Cc1sc2c(c1C)C(c1ccc(Cl)cc1)=N[C@@H](CC(=O)Nc1ccc(OCCOCCOCCOCCNc3cccc4c3C(=O)N(C3CCC(=O)NC3=O)C4=O)cc1)c1nnc(C)n1-2 (some centres not stated)	%	51.7
COC(=O)C[C@](O)(CCCC(C)(C)O)C(=O)O[C@@H]1C(OC)=C[C@]23CCCN2CCc2cc4c(cc2[C@H]13)OCO4	%	27.9
Cc1ccc(S(=O)(=O)Nc2ccc3c(c2)c(C(=O)C(F)(F)F)cn3CC(=O)N[C@@H](CC(C)C)C(=O)O)cc1	%	89.7
CO/N=C(\C(=O)N[C@@H]1C(=O)N2C(C(=O)[O-])=C(C[n+]3ccn4ncccc43)CS[C@H]12)c1nsc(N)n1	%	99
Clc1ccc(-c2nc3sccn3c2/C=N/OCc2ccc(Cl)c(Cl)c2)cc1	%	96.5
C=CC(=O)Nc1cccc(Nc2nc(Nc3ccc(NC4CN(CCF)C4)cc3OC)ncc2C(F)(F)F)c1	%	38.3
COc1cc(CN(CCN)C(=O)c2cccs2)ccc1OCc1ccccc1	%	89.1
CC(=O)OC[C@H]1O[C@@H](n2ccc(=O)[nH]c2=O)[C@H](OC(C)=O)[C@@H]1OC(C)=O [uridine-triacetate]	%	115
CN[C@@H]1[C@@H](O)[C@@H](O[C@@H]2[C@@H](O)[C@H](O[C@H]3O[C@H](CN)[C@@H](O)[C@H](O)[C@H]3O)[C@@H](N)C[C@H]2NC(=O)[C@@H](O)CN)OC[C@]1(C)O	%	91.8
O=C1c2ccccc2C(Cc2ccncc2)(Cc2ccncc2)c2ccccc21	%	89.2
Oc1cc2c(cc1O)CN(C(=S)NCCc1ccc(Cl)cc1)CCC2 [capsazepine]	%	65.8

---

Test system: Calu-3
Experiment: cell viability relative to DMSO; higher = less toxic
Conditions: 72 h; 1 nM
Listing of entries alongside the reported cell viability.

molecule	cell viability
CN1CCCC(n2nc(Cc3ccc(Cl)cc3)c3ccccc3c2=O)CC1 (stereo not drawn)	97.1%
Cn1cc(C2=C(c3ccc(Cl)cc3Cl)C(=O)NC2=O)c2ccccc21	113%
Cc1ccc(S(=O)(=O)Nc2ccc3c(c2)c(C(=O)C(F)(F)F)cn3CC(=O)N[C@@H](CC(C)C)C(=O)O)cc1	88.4%
c1ccc2c(c1)CN1CCCC1=N2	95.1%
CC(=O)Oc1ccccc1C(=O)Oc1cccc(CO[N+](=O)[O-])c1	96.3%
Nc1nc2[nH]cc(CCc3ccc(C(=O)N[C@@H](CCC(=O)O)C(=O)O)cc3)c2c(=O)[nH]1	108%
COc1c(C)c2c(c(O)c1C/C=C(\C)CCC(=O)OCCN1CCOCC1)C(=O)OC2 [mycophenolate-mofetil]	89.2%
CCOC(=O)c1ncn2c1[C@@H]1CCCN1C(=O)c1cc(OC)ccc1-2	101%
CSCC1CN(/N=C/c2ccc([N+](=O)[O-])o2)C(=O)O1 (stereo not drawn)	89.9%
O=C(Nc1ccccc1)N1CCC(Cc2cnc3ccccc3c2)CC1	89.9%
Cc1cc(CN2CCN(c3c(Br)cnc4nc(-c5ccc(N6CCN(C)CC6)cc5)[nH]c34)CC2)no1	97.8%
CCOc1ccc(NC(=S)N2CCC(C(O)(c3ccccc3)c3ccccc3)CC2)cc1	100%
Cc1nn(C)c2nc(NNC(=O)Nc3cc(Cl)nc(Cl)c3)cc(C(C)C)c12	101%
CCc1nn(CCO)c(CC)c1Oc1cc(C#N)cc(C#N)c1	102%
NCc1ccc(S(N)(=O)=O)cc1 [mafenide]	100%
Cc1sc2c(c1C)C(c1ccc(Cl)cc1)=N[C@@H](CC(=O)Nc1ccc(OCCOCCOCCOCCNc3cccc4c3C(=O)N(C3CCC(=O)NC3=O)C4=O)cc1)c1nnc(C)n1-2 (stereo partly drawn)	95.1%
Cc1cccc(C)c1NC(=O)CN1CCN(CCCC(c2ccc(F)cc2)c2ccc(F)cc2)CC1	106%
C[C@]12CC[C@H]3[C@@H](CCC4=CC(=O)CC[C@@]43C)[C@@H]1CC[C@@H]2C(=O)CO	98.5%

---

System: Calu-3
Test: cell viability relative to DMSO; higher = less toxic
Details: 72 h; 1 nM
recorded.metric: cell viability (%)

compound	target.under.test	recorded.metric	assay.value
CC1(C)CC(=O)c2c(C(F)(F)F)nn(-c3ccc(C(N)=O)c(N[C@H]4CC[C@H](O)CC4)c3)c2C1	Calu-3	cell viability	99.9
CCCOCCn1c(=O)c(N2CCN(CCO)CC2)nc2cnc(-c3ccc(OC)nc3)cc21	Calu-3	cell viability	99.5
CC(O)COC[C@H]1O[C@@H]2O[C@H]3[C@H](O)[C@@H](O)[C@@H](O[C@H]4[C@H](O)[C@@H](O)[C@@H](O[C@H]5[C@H](O)[C@@H](O)[C@@H](O[C@H]6[C@H](O)[C@@H](O)[C@@H](O[C@H]7[C@H](O)[C@@H](O)[C@@H](O[C@H]8[C@H](O)[C@@H](O)[C@@H](O[C@H]1[C@H](O)[C@H]2O)O[C@@H]8COCC(C)O)O[C@@H]7COCC(C)O)O[C@@H]6COCC(C)O)O[C@@H]5COCC(C)O)O[C@@H]4COCC(C)O)O[C@@H]3COCC(C)O (stereo partly drawn) [hydroxypropyl-beta-cyclodextrin]	Calu-3	cell viability	100
CC(=O)C1=C(O)[C@@H]2[C@H]3c4c[nH]c5cccc(c45)C[C@H]3C(C)(C)N2C1=O	Calu-3	cell viability	105
CC(C)=CCC[C@](C)(O[C@@H]1O[C@H](CO)[C@@H](O)[C@H](O)[C@H]1O)[C@H]1CC[C@]2(C)[C@@H]1[C@H](O)C[C@@H]1[C@@]3(C)CC[C@H](O)C(C)(C)[C@@H]3CC[C@]12C [ginsenoside-C-K]	Calu-3	cell viability	89.3

---

Tested on: U2OS
Test: cell viability relative to DMSO; higher = less toxic
Conditions: 72 h; 1 nM
Catalogue of cell viability values
recorded.metric: cell viability

molecule	target.under.test	recorded.metric	assay.value
COc1ccc(Nc2ccn(-c3ccccc3)n2)cc1	U2OS	cell viability	95%
Cc1ccsc1/C=C/C1=NCCCN1C [morantel]	U2OS	cell viability	98.2%
Cc1c(C)c2c(c(C)c1O)CCC(C)(COc1ccc(CC3SC(=O)NC3=O)cc1)O2 (stereo not given) [troglitazone]	U2OS	cell viability	95.2%
CN(Cc1cc(Br)cc(Br)c1N)C1CCCCC1 [bromhexine]	U2OS	cell viability	98.9%
CN(Cc1ccc(C(C)(C)C)cc1)Cc1cccc2ccccc12 [butenafine]	U2OS	cell viability	94.6%
